target: T1, recombinant human CD63 extracellular loop 2 expressed with a C-terminal Myc-Myc-hexahistidine (human); assay: SPR Biacore, mAb captured, 37C
T1 construct: also called hCD63 EC loop 2-MMH; human CD63 EC loop 2-MMH
T1 sequence (chain, as listed by the source limits assumed): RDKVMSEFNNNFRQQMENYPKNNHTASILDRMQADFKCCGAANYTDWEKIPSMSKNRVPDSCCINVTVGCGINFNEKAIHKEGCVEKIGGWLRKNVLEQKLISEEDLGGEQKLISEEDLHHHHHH
# maps each entry to its 100 nM Ag Bound (RU)
# number only, unit RU dropped from output

Illustrative cases are given below, each with its answer.
| Binder | Value observed |
| --- | --- |
| H2M12454N (antibody, V domains shown, also called H2bM12454N) VH: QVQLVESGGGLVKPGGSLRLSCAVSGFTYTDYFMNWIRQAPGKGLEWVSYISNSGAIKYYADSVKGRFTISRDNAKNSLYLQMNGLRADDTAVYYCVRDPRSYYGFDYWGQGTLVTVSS VL: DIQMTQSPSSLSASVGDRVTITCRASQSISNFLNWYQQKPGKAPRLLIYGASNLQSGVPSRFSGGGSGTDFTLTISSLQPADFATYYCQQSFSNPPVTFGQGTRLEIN | 56 |
| H1M12451N (antibody, V domains shown) VH: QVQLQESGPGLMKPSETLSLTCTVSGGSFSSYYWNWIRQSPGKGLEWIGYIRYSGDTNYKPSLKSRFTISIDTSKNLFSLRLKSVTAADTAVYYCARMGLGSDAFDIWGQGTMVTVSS VL: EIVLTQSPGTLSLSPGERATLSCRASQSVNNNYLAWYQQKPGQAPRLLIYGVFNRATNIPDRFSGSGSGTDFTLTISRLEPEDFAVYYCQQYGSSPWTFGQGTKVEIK | 44 |

Which measured 100 nM Ag Bound (RU) value corresponds to H2M12452N (antibody, V domains shown, also called H2aM12452N) VH: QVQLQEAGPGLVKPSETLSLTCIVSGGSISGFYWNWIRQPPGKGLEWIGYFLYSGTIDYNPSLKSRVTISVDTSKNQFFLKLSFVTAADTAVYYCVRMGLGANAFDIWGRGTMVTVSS VL: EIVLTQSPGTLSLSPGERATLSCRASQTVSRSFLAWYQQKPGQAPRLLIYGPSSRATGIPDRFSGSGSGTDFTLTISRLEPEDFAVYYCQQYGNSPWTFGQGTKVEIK ? 34

Which measured 100 nM Ag Bound (RU) value corresponds to H1M12362N (antibody, V domains shown) VH: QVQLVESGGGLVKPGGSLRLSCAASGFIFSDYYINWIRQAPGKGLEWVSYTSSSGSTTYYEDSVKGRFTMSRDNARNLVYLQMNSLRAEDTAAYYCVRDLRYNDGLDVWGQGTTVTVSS VL: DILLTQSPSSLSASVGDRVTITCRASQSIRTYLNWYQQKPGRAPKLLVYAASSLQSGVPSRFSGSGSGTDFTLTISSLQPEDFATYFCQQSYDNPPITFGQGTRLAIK ? 32

Which measured 100 nM Ag Bound (RU) value corresponds to H2M12387N (antibody, V domains shown, also called H2aM12387N) VH: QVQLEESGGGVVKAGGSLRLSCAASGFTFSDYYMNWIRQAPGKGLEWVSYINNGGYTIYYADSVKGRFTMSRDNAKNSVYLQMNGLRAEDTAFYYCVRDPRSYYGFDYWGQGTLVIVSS VL: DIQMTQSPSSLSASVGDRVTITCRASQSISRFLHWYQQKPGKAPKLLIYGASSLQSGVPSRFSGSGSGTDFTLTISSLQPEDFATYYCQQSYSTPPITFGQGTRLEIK ? 77
